The reported numbers originate from patent US8779158B2.

# study-target: hα7-wt nAChR (Homo sapiens, UniProt P36544)
# Sequence (P36544 23-502): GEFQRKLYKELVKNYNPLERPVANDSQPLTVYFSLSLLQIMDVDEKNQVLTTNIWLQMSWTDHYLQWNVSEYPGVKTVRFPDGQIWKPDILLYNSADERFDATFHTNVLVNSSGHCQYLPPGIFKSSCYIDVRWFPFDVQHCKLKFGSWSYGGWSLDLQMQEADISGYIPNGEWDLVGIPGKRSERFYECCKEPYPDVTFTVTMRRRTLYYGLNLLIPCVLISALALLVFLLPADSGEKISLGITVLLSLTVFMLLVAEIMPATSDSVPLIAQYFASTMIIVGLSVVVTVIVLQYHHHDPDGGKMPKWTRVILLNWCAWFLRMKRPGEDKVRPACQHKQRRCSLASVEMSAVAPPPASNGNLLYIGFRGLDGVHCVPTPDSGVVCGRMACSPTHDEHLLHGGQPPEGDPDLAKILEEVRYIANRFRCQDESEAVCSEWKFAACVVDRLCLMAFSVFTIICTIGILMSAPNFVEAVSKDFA
# experiment-description: Ca2+ flux imaging (FDSS) (Protocol B), potentiation of the choline response
# settings: Ca2+ assay as described in D.1; "<5" = activity did not reach a top plateau at maximal concentration

compound	EC50
COc1cc(Cl)cc(Nc2cc(-c3ccnc(C)c3)n(CC(=O)NC3CC3)n2)c1 [compound 110]	1780 nM
CCNC(=O)Cn1nc(Nc2ccc(F)c(F)c2)cc1-c1ccncc1 [compound 20]	> 10000 nM
Cc1cc(-c2cc(Nc3cc(F)cc(Cl)c3)nn2CCC(=O)N(C)C)ccn1 [compound 41]	389 nM
Cc1cc(-c2cc(Nc3ccc4c(c3)OC(F)(F)O4)nn2CC(=O)NCC2CC2)ccn1 [compound 95]	234 nM
Cc1cc(-c2cc(Nc3ccc(F)c(F)c3)nn2CC(=O)NCC2CC2)cc(C)n1 [compound 57]	209 nM
CCNC(=O)Cn1nc(Nc2cc(F)cc(Cl)c2)cc1-c1ccnc(C)c1 [compound 39]	776 nM
CC[C@H](O)Cn1nc(Nc2cc(OC)cc(C(F)(F)F)c2)cc1-c1cc(C)nc(C)c1 [compound 101]	151 nM
CNC(=O)Cn1nc(Nc2ccc3c(c2)OC(F)(F)O3)cc1-c1ccncc1 [compound 86]	2290 nM

* * *

# study-target: hα7-wt nAChR (Homo sapiens, UniProt P36544)
# experiment-description: Ca2+ flux imaging (FDSS) (Protocol B), potentiation of the choline response
# settings: Ca2+ assay as described in D.1; "<5" = activity did not reach a top plateau at maximal concentration
EC50 for assorted compounds

compound	EC50
CC[C@H](O)Cn1nc(Nc2cc(OC)cc(C(F)(F)F)c2)cc1-c1ccnc(C)c1C [compound 53]	1.07 µM
Cc1cc(-c2cc(Nc3ccc4c(c3)OC(F)(F)O4)nn2CCC(=O)N(C)C)cc(C)n1 [compound 157]	0.363 µM
CNC(=O)Cn1nc(Nc2ccc(F)c(F)c2)cc1-c1ccc2c(c1)OCCO2 [compound 7]	0.195 µM
CCNC(=O)Cn1nc(Nc2cccc(OC(F)(F)F)c2)cc1-c1ccc2c(c1)OCCO2 [compound 80]	0.204 µM

* * *

# study-target: hα7-wt nAChR (Homo sapiens)
# experiment-description: Ca2+ flux imaging (FDSS) (Protocol B), potentiation of the choline response
# settings: Ca2+ assay as described in D.1; "<5" = activity did not reach a top plateau at maximal concentration

compound-smiles	u	inequality-operator	EC50
CNC(=O)Cn1nc(Nc2cc(F)cc(C(F)(F)F)c2)cc1-c1ccncc1C	nM	>	10000
CC[C@H](O)Cn1nc(Nc2ccc(F)c(C(F)(F)F)c2)cc1-c1ccc(C)nc1	nM	=	1120
CC[C@H](O)Cn1nc(Nc2ccc(F)c(F)c2F)cc1-c1ccnc(COC)c1	nM	=	1070
CN(C)C(=O)CCn1nc(Nc2ccc(F)cc2)cc1-c1ccc2c(c1)OCCO2	nM	=	117

* * *

# study-target: hα7-wt nAChR (Homo sapiens, UniProt P36544)
# experiment-description: Ca2+ flux imaging (FDSS) (Protocol B), potentiation of the choline response
# settings: Ca2+ assay as described in D.1; "<5" = activity did not reach a top plateau at maximal concentration
pEC50: −log10 of the molar value.
Assign Y whenever pEC50 does not fall below 6; assign N whenever it does.

compound-smiles	qualitative-label
Cc1cc(-c2cc(Nc3cccc(Cl)c3F)nn2CC(=O)NCC2CC2)ccn1	Y
CNC(=O)Cn1nc(Nc2cccc(C(F)(F)F)c2)cc1-c1ccc2c(c1)OCCO2	Y
Cc1cc(-c2cc(Nc3cccc(Cl)c3F)nn2CC(=O)NC2CC2)cc(C)n1	Y
CCNC(=O)Cn1nc(Nc2cccc(C(F)(F)F)c2)cc1-c1cccnc1	N
Cc1cc(-c2cc(Nc3ccc4c(c3)OC(F)(F)O4)nn2CC(=O)NC2CCC2)cc(C)n1	Y
CCNC(=O)Cn1nc(Nc2ccc(F)c(F)c2)cc1-c1cc(C)nc(C)c1	Y
Cc1cc(-c2cc(Nc3ccc(F)c(C(F)(F)F)c3)nn2CC[C@H](C)O)ccn1	N
CCNC(=O)Cn1nc(Nc2cc(F)c(F)c(F)c2)cc1-c1ccc2c(c1)OCCO2	Y
CCNC(=O)Cn1nc(Nc2cccc(Cl)c2F)cc1-c1ccnc(C)c1	Y
Cc1cc(-c2cc(Nc3ccc(F)c(F)c3F)nn2CCC(=O)N(C)C)ccn1	Y
Cc1cc(-c2cc(Nc3cccc(Cl)c3)nn2CC(=O)NCC2CC2)cc(C)n1	Y
Cc1cc(-c2cc(Nc3cc(F)c(F)c(F)c3)nn2CC(=O)NC2CCC2)cc(C)n1	Y
Cc1cc(-c2cc(Nc3ccc(F)c(F)c3F)nn2CC(=O)NC2CCC2)cc(C)n1	Y
CNC(=O)Cn1nc(Nc2cccc(OC(F)(F)F)c2)cc1-c1ccc2c(c1)OCCO2	Y
CC[C@H](O)Cn1nc(Nc2cccc(Cl)c2)cc1-c1ccnc(C)c1	N
Cc1cc(-c2cc(Nc3cc(F)c(F)c(F)c3)nn2CC(=O)NCC2CC2)ccn1	Y
CCNC(=O)Cn1nc(Nc2ccc3c(c2)OC(F)(F)O3)cc1-c1ccncc1C	N
CNC(=O)Cn1nc(Nc2cccc(C(F)(F)F)c2)cc1-c1ccnc(C)c1	N
